- assay text: Cmax in mouse brain at 20 mg/kg, ip
- Assay type: ADME, organism-based
- Design: dose 20 mg/kg, route intraperitoneal
quantity measured: Cmax

substance smiles: CC(C)c1cc(C(=O)Nc2ccccn2)no1
quantity measured: Cmax
observed measurement: 5 to 6 ng/mL

###

- assay text: Half life in mouse liver microsomes
- Type: ADME, microsome
- measurement setup: liver microsomes
# half-life annotations
quantity measured: half-life (min)

substance smiles: CC(C)c1cc(C(=O)Nc2ccc(F)c(Cl)c2)no1
quantity measured: half-life
qualifier symbol: ≤
observed measurement: 5

substance smiles: O=C(Nc1ncc(C2(O)CCC2)s1)c1ccc(F)c(Cl)c1
quantity measured: half-life
qualifier symbol: =
observed measurement: 39

###

- measured on: CYP3A4 (Homo sapiens)
- Sequence (P08684 whole entry): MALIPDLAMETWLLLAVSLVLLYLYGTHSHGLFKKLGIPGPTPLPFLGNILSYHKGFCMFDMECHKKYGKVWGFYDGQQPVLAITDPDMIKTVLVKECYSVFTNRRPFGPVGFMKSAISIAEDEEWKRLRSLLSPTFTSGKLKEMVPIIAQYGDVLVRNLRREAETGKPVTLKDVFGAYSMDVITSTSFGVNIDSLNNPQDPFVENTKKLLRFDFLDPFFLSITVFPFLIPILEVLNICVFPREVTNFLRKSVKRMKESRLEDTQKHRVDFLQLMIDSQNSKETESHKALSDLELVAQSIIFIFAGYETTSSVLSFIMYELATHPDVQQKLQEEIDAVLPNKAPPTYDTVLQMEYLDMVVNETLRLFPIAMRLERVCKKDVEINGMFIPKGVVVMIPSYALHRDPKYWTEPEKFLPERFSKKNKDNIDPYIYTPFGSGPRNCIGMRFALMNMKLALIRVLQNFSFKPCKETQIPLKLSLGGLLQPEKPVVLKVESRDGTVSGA
- assay text: Inhibition of CYP3A4 (unknown origin) at 10 uM
- Type: ADME
quantity measured: inhibition at 10 µM

substance smiles: O=C(Nc1ncc(C2(O)CCC2)s1)c1ccc(F)c(Cl)c1
observed measurement: < 50%

###

- measured on: Survival motor neuron protein (Homo sapiens)
- assay text: Stabilization of human SMN protein expressed in HEK293 cells expressing SMN2 promoter after 24 hrs by luciferase reporter gene assay relative to control
- Assay type: cell-based
Active and inactive are the calls of the source. No cut-off for these calls is given here.
quantity measured: Activity

substance smiles: CC(C)c1cc(C(=O)Nc2ccc(F)c(Cl)c2)no1
quantity measured: Activity
observed measurement: 242%
--
substance smiles: O=C(Nc1ccc(F)c(Cl)c1)c1ccon1
quantity measured: Activity
observed measurement: inactive
--
substance smiles: CC(C)c1nc(NC(=O)c2ccc(F)c(Cl)c2)cs1
quantity measured: Activity
observed measurement: 131%
--
substance smiles: CC(C)c1cc(NC(=O)c2ccc(F)c(Cl)c2)no1
quantity measured: Activity
observed measurement: 188%
--
substance smiles: CC(C)c1cc(C(=O)Nc2ccc(F)cc2)no1
quantity measured: Activity
observed measurement: 182%
--
substance smiles: CC(C)c1cc(C(=O)Oc2ccc(F)c(Cl)c2)no1
quantity measured: Activity
observed measurement: inactive
--
substance smiles: COc1ccccc1NC(=O)c1cc(C(C)C)on1
quantity measured: Activity
observed measurement: 80%
--
substance smiles: Cc1cccc(NC(=O)c2cc(C(C)C)on2)c1
quantity measured: Activity
observed measurement: 150%
--
substance smiles: CC(C)c1cc(C(=O)Nc2nc3ccccc3n2C)no1
quantity measured: Activity
observed measurement: 219%
--
substance smiles: CC(C)c1cc(C(=O)Nc2nc3ccccc3s2)no1
quantity measured: Activity
observed measurement: 124%
--
substance smiles: COc1cccc(NC(=O)c2cc(C(C)C)on2)c1
quantity measured: Activity
observed measurement: 147%
--
substance smiles: CC(C)c1cc(C(=O)Nc2nc3ccccc3[nH]2)no1
quantity measured: Activity
observed measurement: 211%
--
substance smiles: O=C(Nc1ccc(F)c(Cl)c1)c1cc(Cc2ccccc2)on1
quantity measured: Activity
observed measurement: 116%
--
substance smiles: CC(C)c1cc(C(=O)Nc2ccncc2)no1
quantity measured: Activity
observed measurement: inactive
--
substance smiles: CC(C)c1cc(C(=O)N2CCc3ccccc32)no1
quantity measured: Activity
observed measurement: 164%
--
substance smiles: Cc1c(C(=O)Nc2ccc(F)c(Cl)c2)noc1C(C)C
quantity measured: Activity
observed measurement: 182%
--
substance smiles: CC(C)c1cc(C(=O)Nc2ncco2)no1
quantity measured: Activity
observed measurement: inactive
--
substance smiles: CC(C)c1cc(C(=O)Nc2ccccc2Cl)no1
quantity measured: Activity
observed measurement: 114%
--
substance smiles: CC(C)c1cc(C(=O)NC2Cc3ccccc3C2)no1
quantity measured: Activity
observed measurement: inactive
--
substance smiles: CC(C)c1cc(C(=O)Nc2nccs2)no1
quantity measured: Activity
observed measurement: 166%
--
substance smiles: CC(C)c1cc(NC(=O)Nc2ccc(F)c(Cl)c2)no1
quantity measured: Activity
observed measurement: inactive
--
substance smiles: CC(C)c1cc(C(=S)Nc2ccc(F)c(Cl)c2)no1
quantity measured: Activity
observed measurement: 120%
--
substance smiles: CC(C)c1cc(C(=O)Nc2ccccc2F)no1
quantity measured: Activity
observed measurement: 175%
--
substance smiles: CC(C)c1cc(NC(=O)c2ccc(F)c(Cl)c2)on1
quantity measured: Activity
observed measurement: 137%
--
substance smiles: CC(C)c1cc(CNc2ccc(F)c(Cl)c2)no1
quantity measured: Activity
observed measurement: 137%
--
substance smiles: CC(C)Cc1cc(C(=O)Nc2ccc(F)c(Cl)c2)no1
quantity measured: Activity
observed measurement: 180%
--
substance smiles: Cc1ccc(NC(=O)c2cc(C(C)C)on2)cc1
quantity measured: Activity
observed measurement: 200%
--
substance smiles: O=C(Nc1ncc(C2(O)CCC2)s1)c1ccc(F)c(Cl)c1
quantity measured: Activity
observed measurement: 190%
--
substance smiles: CC(C)c1cc(C(=O)Nc2ccccn2)no1
quantity measured: Activity
observed measurement: 195%
--
substance smiles: O=C(Nc1ccc(F)c(Cl)c1)c1cc(C2CCCCC2)on1
quantity measured: Activity
observed measurement: inactive
--
substance smiles: CC(C)c1cc(C(=O)Nc2cccnc2)no1
quantity measured: Activity
observed measurement: 94%
--
substance smiles: CC(C)(C)c1cc(C(=O)Nc2ccc(F)c(Cl)c2)no1
quantity measured: Activity
observed measurement: 140%
--
substance smiles: O=C(Nc1ccc(F)c(Cl)c1)c1cc(-c2ccccc2)on1
quantity measured: Activity
observed measurement: inactive
--
substance smiles: CC(C)c1cc(C(=O)Nc2cccc(F)c2)no1
quantity measured: Activity
observed measurement: 180%
--
substance smiles: CC(C)c1cc(C(=O)Nc2ccccc2)no1
quantity measured: Activity
observed measurement: 190%
--
substance smiles: O=C(Nc1ccc(F)c(Cl)c1)c1cc(C2CCCC2)on1
quantity measured: Activity
observed measurement: inactive
--
substance smiles: CC(C)c1cc(C(=O)N(C)c2ccc(F)c(Cl)c2)no1
quantity measured: Activity
observed measurement: inactive
--
substance smiles: Cc1ccccc1NC(=O)c1cc(C(C)C)on1
quantity measured: Activity
observed measurement: 125%
--
substance smiles: Cc1cc(C(=O)Nc2ccc(F)c(Cl)c2)no1
quantity measured: Activity
observed measurement: inactive
--
substance smiles: CCc1cc(C(=O)Nc2ccc(F)c(Cl)c2)no1
quantity measured: Activity
observed measurement: 165%
--
substance smiles: CC(C)c1cc(C(=O)Nc2ccc(Cl)cc2)no1
quantity measured: Activity
observed measurement: 168%
--
substance smiles: CC(C)c1cc(C(=O)Nc2cccc(Cl)c2)no1
quantity measured: Activity
observed measurement: 160%
